Hello, the source for this data is PubChem BioAssay (NCI), in case you need it.

# System: K-562 leukemia
# Assay Comment: NCI tumour cell line growth inhibition, 48 h
Field: TGI. Provide a value for each of the molecules that follow.

Molecule | Assayed System | TGI
CCN(CC)CCN1C(=O)c2cccc3cc(N)cc(c23)C1=O | K-562 leukemia | 44.2 µM
COc1ccc2nc3cc(Cl)ccc3c(NCCCN(C)CCCNc3ccc4ncn5c6ccccc6c(=O)c3c45)c2c1 | K-562 leukemia | > 25 µM
CCCCCCCCCCCCCCCCCCCCCCC(=O)N[C@H]1CCc2cc(OC)c(OC)c(OC)c2-c2ccc(SC)c(=O)cc21 | K-562 leukemia | > 100 µM
CC(=O)O[C@@H]1[C@H]2O[C@H]2[C@H]2O[C@@]2(COC(=O)c2ccccc2)[C@H]1OC(C)=O | K-562 leukemia | > 100 µM
Cc1c(Cl)ccc2[s+]snc12 | K-562 leukemia | 73.7 µM

The following molecules each have a reported value; give each one's TGI.
1. NC1=Nc2cc(OCCCCN3Cc4ccccc4C3)c(OCC3CC3)cc2C12CCCC2
2. COc1cc(/C=C2\C(=O)Nc3ccc(O)cc32)cc(OC)c1OC
3. COc1cccc(O)c1-c1cc(=O)c2c(O)c(OC)c(OC)c(OC)c2o1
4. Fc1cnccc1-c1nc2ccc3[nH]ncc3c2c2c1CCCC2

1: 1.73 µM; 2: > 100 µM; 3: > 100 µM; 4: > 100 µM

For every item below, please supply its TGI.
1. COC(=O)N1C=Cc2c(c(C)c3c([nH]c4ccccc43)c2C)C1C (stereo not drawn)
2. C=C1C(=O)O[C@H]2[C@H]1CC/C(COC(=O)NCc1ccc(Cn3c(=O)sn(CCCI)c3=O)cc1)=C\CC[C@@]1(C)O[C@@H]21
3. C=CC(C)(C)[C@@]12CC3C(=O)N[C@@H](Cc4ccccc4)C(=O)N3[C@@H]1N(C(C)=O)c1ccccc12 (stereo partly drawn)
4. CN(C)CCCCN1c2ccccc2Sc2ccc(N=[N+]=[N-])cc21
5. Nc1nc(NCc2ccccc2)cc(NCc2ccccc2)n1
6. CCCCCCCCCCCCOC(=N)N1CCOCC1
7. Cc1cc(C)c(CNC(=O)c2cc(Cl)c3c(c2C)O[C@@](C)(C2CCC(N(C)C)CC2)O3)c(=O)[nH]1 (stereo partly drawn)

["37.7 µM", "> 100 µM", "> 100 µM", "4.56 µM", "> 100 µM", "7.47 µM", "> 100 µM"]

Required: TGI, one value per molecule below.
1. NS(=O)(=O)c1ccc(NNc2c3ccccc3nc3c(C(=O)Nc4ccc(S(N)(=O)=O)cc4)cccc23)cc1
2. CC(C)CC(=O)O[C@H]1C(=O)O[C@@H]2C[C@H]3[C@H](C)C(=O)C(O[C@@H]4O[C@H](CO)[C@@H](O)[C@H](O)[C@H]4O)=C[C@]3(C)[C@H]3[C@@H](O)[C@H](O)[C@]4(C(=O)O)OC[C@]32[C@@H]14

62.1 µM
> 100 µM

* * *

# System: COLO 205 colon
# Assay Comment: NCI tumour cell line growth inhibition, 48 h
Where a SMILES comes first, the peptide text is derived from it. The star is where a group is joined. Boc = CC(C)(C)OC(=O)*; OtBu = CC(C)(C)O*
Would you mind telling me the reported TGI of each entry?

Would you please look over these solved cases?
Compound | Reported Result
CC(C(=O)NCNC(=O)c1ccccc1)C(=O)NCc1ccccc1 (centres undefined) | > 100 µM
COc1cc(F)c(F)c(F)c1C(=O)c1cnc(NC2CCN(S(C)(=O)=O)CC2)nc1N | 4.49 µM
COc1ccc(CCN2C(=O)C(=O)C(C(=O)c3ccccc3)C2c2ccccc2)cc1OC (centres undefined) | > 100 µM
CC(=O)OCC1OC(Sc2nc(-c3ccccc3)c(C#N)c(=O)n2C2OC(COC(C)=O)C(OC(C)=O)C(OC(C)=O)C2OC(C)=O)C(OC(C)=O)C(OC(C)=O)C1OC(C)=O (centres undefined) | > 100 µM
COc1ccc2c(c1)OCC1c3cc(OC)ccc3OC21 (centres undefined) | > 100 µM

// each compound listed below needs its TGI
1. CS(=O)c1cc(=O)c2ccccc2s1 (centres undefined)
2. CCc1c(N=[N+]=[N-])c2ccccc2oc1=O

1. 4.65 µM
2. > 100 µM

Could you tell me TGI for each of these compounds? They are listed below.
1. CN1CC[C@H](N(C)C(=O)N2CC(c3cc(F)ccc3F)=C[C@@]2(CO)c2ccccc2)[C@H](F)C1
2. Cc1ccc(CNc2ccc(Cl)cc2NCc2ccc(C)c(O)c2)cc1O
3. COc1cc(Nc2nc(NS(=O)(=O)c3cc(C)c(Cl)cc3S)n[nH]2)cc(OC)c1OC
4. Cc1cccc2c(=O)c3cccc(CC(=O)O)c3oc12
5. CCN(CC)CCN1C(=O)c2cccc3cc(N)cc(c23)C1=O
6. COc1cccc(-c2cc(-c3ccc(Nc4nc(Nc5ccc(Cl)cc5)nc(Nc5ccc(Cl)cc5)n4)cc3)nc(N)c2C#N)c1
7. C/C(=C\COP(=O)(O)CP(=O)(O)O)CC/C=C(\C)CNc1ccccc1

1. 3.77 µM
2. 15.9 µM
3. > 100 µM
4. > 100 µM
5. 16.8 µM
6. 3.39 µM
7. > 100 µM

Return reported TGI values for all items listed beneath this line.
1. CC[C@@]12CC(C(=O)OC)=C3Nc4ccccc4[C@@]34CCN(C[C@H]3O[C@H]31)[C@@H]24
2. CCc1ccc2cc3c(ccc4ccccc43)c3c2c1CC3
3. COC(=O)[C@]1(CCC(C)=O)C(=O)C=CN([C@H](C)c2ccccc2)[C@@H]1Cc1ccc(OC)c(OCc2ccccc2)c1I
4. CC(C)(C)OC(=O)CC(NC(=O)OC(C)(C)C)C(=O)NC(Cc1ccccc1)C(N)=O (centres undefined) (Boc-Asp(OtBu)-Phe-NH2; configuration not given here)
5. CCC[CH2][Sn]1([CH2]CCC)[O]C(=O)c2cccnc2[S]1

> 100 µM
> 100 µM
47.7 µM
> 100 µM
9.33 µM

* * *

# System: SF-539 CNS
# Assay Comment: NCI tumour cell line growth inhibition, 48 h
Metric Name: TGI

These solved cases illustrate the format of a correct answer.
Compound | Assayed System | Reported Result
Cc1ccc(Nc2nc3ccccc3nc2NS(=O)(=O)c2ccc(N)cc2)cc1 | SF-539 CNS | > 100 µM
C/C=C/C(C/C=C(\C)CO[Si](C)(C)C(C)(C)C)O[Si](C)(C)C(C)(C)C (stereo not drawn) | SF-539 CNS | > 100 µM

Provide reported TGI for each item, in the same order as listed.
1. COc1ccc2c(c1)OCC1c3cc(OC)ccc3OC21 (stereo not drawn)
2. COc1cc(OC)cc(Oc2nc3ccc(C(F)(F)F)cc3nc2-c2ccccc2)c1
3. Cc1nn(-c2ccccc2)c2c1[C@@H](C)[C@H]1CC3(CC4(C)C[C@@H]3C1(C)c1c(C)nn(-c3ccccc3)c1N4C)N2C (stereo partly drawn)
4. CNC(=S)N/N=C/CSC/C=N/NC(=S)NC
5. COc1ccc2nc3cc(Cl)ccc3c(NCCCN(C)CCCNc3ccc4ncn5c6ccccc6c(=O)c3c45)c2c1
6. Nc1cc2c(C3OC(CO)C(O)C3O)[nH]nc2c(=S)[nH]1 (stereo not drawn)
7. CC(=O)NNc1nc(C)c(C(=O)NNC(=O)C(=O)Nc2ccc(C)cc2[N+](=O)[O-])s1

> 100 µM
> 100 µM
> 100 µM
> 100 µM
5.26 µM
> 100 µM
> 100 µM

Respectfully, I request TGI for each entry included below.
1. CCOC(=O)/C(C#N)=c1/s/c(=C(\O)N/N=C/c2ccc(OC)cc2)c(=N)n1-c1ccccc1
2. C(#C[C@@]12CCC[C@@H]1NCO2)c1ccc2c(c1)OCO2
3. N=C(N)c1ccc(-c2ccc(-c3cccs3)s2)cc1F
4. CN(C)CCCn1c2c(c3ccc(N4CCNCC4)cc3c1=O)C(=O)c1ccccc1-2

> 100 µM
> 100 µM
3.38 µM
3.16 µM

* * *

# Test system: MALME-3M melanoma
# Assay Comment: NCI tumour cell line growth inhibition, 48 h
Metric Name: TGI (µM)
One number for each entry, in µM.

Compound | Units Label | Reported Result
COc1cc(C(=O)N[C@@H]2CCCN(C)C2)ccc1Nc1ncc2c(n1)N(C1CCCC1)CC(C)(C)C(=O)N2C | µM | 10.6
CC(C)CCNC(=O)c1ccc(CNC(=O)/C=C/c2ccc3c(c2)-c2ccccc2C3)cc1 | µM | 45.8
N#CC(NNC(=O)c1ccccc1O)c1ccccc1O (centres undefined) | µM | 96.1

What does the record list as TGI for `Cc1ccc(CNc2ccc(Cl)cc2NCc2ccc(C)c(O)c2)cc1O` ?
14.7

* * *

# Test system: RXF 393 renal
# Assay Comment: NCI tumour cell line growth inhibition, 48 h
Kindly supply the reported TGI values for the records listed here.

Some solved cases for reference:
Compound | TGI
FC(F)(F)c1ccc2c(c1)nc(Cc1ccc(Cl)cc1)n2CC1CCCN2CCCCC12 (stereo not given) | 22 µM
Cc1cc(C)c(CNC(=O)c2cc(Cl)c3c(c2C)O[C@@](C)(C2CCC(N(C)C)CC2)O3)c(=O)[nH]1 (stereo not given in full) | 71.5 µM
c1c[nH]c(CN2CCN(Cc3ncc[nH]3)CC2)n1 | > 100 µM
CC(=O)NNc1nc(C)c(C(=O)NNC(=O)C(=O)Nc2ccc(C)cc2[N+](=O)[O-])s1 | > 100 µM

Now consider the entry below.
Record request: TGI value, item OC1(c2ccccc2)c2ccccc2N(c2ccccc2)c2ccc(Cl)cc21 (stereo not given)
0.472 µM
